Hi there, I'd appreciate the recorded logD for every entry that follows.
EXPERIMENTAL_DETAILS: method code SF-HPLC, from Li, N. Y., Li, Y., & Gorrod, J. W. (1992). Determination of partition coefficients and ionisation constants of(S)(-)-nicotine and certain metabolites. Med. Sci. Res., 20(23)901-902.
CONDITION_INFO: pH 7.4
Please give the numeric answer without any surrounding text.

Exercise: Form field: reported logD of CN1C(=O)CC[C@H]1c1cccnc1
Key: 0.07

Exercise: Entry CN1C(=O)CCC1c1ccc[n+]([O-])c1 (centres undefined) please
Key: -2.54

Exercise: Entry CN1C(=O)C(O)CC1c1cccnc1 (centres undefined) please
Key: -1.22

Exercise: Entry CNC(=O)CCC(=O)c1cccnc1 please
Key: -0.13

The reported measurements were obtained from the SangsterLogP compilation.
